Target: Gal(b1-4)GlcNAc(b1-3)[GlcNAc(b1-6)]Gal(b1-4)GlcNAc
Assay: glycan array binding signal (z-score within array); higher = stronger binding
Conditions: glycan notation: IUPAC condensed, linker removed
Many of the other results were omitted from the sample, so the strongest signals are more common in it than they were.

binder	glycan array binding signal (z-score)
LngA (Escherichia coli) (protein) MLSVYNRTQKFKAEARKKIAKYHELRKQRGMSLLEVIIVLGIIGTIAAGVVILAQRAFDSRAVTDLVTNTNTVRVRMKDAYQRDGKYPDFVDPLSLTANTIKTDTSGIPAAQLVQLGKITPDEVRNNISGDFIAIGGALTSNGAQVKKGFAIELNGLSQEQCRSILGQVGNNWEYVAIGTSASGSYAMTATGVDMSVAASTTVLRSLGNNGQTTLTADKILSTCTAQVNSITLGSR	-0.507
